System: Trypanosoma cruzi
procedure_details: Antichagasic activity against epimastigote form of Trypanosoma cruzi Tulahuen 2 assessed as parasite growth inhibition at 25 uM measured on day 5 relative to control
Type: functional
setup_conditions: Tulahuen 2, 120 h, read-out: GI
endpoint: inhibition of growth at 25 µM (%)
Report the value in % with no unit label.

Query: Consider the molecule `CCOC(=O)c1c(C(F)(F)F)[n+]([O-])c2ccccc2[n+]1[O-]` and give its measured inhibition of growth at 25 µM.
Reply: 100

Query: Record: `COC(=O)c1c(C(F)(F)F)[n+]([O-])c2ccc(C)cc2[n+]1[O-]`
Reply: 96.1

Query: Ok, now `COC(=O)c1c(C(F)(F)F)[n+]([O-])c2cc(F)c(F)cc2[n+]1[O-]`
Reply: 100

Query: How about `COC(=O)c1c(C(F)(F)F)[n+]([O-])c2cc(C)c(C)cc2[n+]1[O-]` ?
Reply: 91.6

Query: Can you check `CCOC(=O)c1c(C(F)(F)F)[n+]([O-])c2ccc(Cl)cc2[n+]1[O-]` next?
Reply: 100

Query: Param item: `COC(=O)c1c(C(F)(F)F)[n+]([O-])c2ccc(Cl)cc2[n+]1[O-]`
Reply: 100

Query: Same thing, different molecule: `COC(=O)c1c(C(F)(F)F)[n+]([O-])c2cc(Cl)c(Cl)cc2[n+]1[O-]`
Reply: 100

Query: Okay, and `COC(=O)c1c(C(F)(F)F)[n+]([O-])c2ccc(OC)cc2[n+]1[O-]` ?
Reply: 86.6

Query: Can you check `CCOC(=O)c1c(C(F)(F)F)[n+]([O-])c2cc(Cl)c(Cl)cc2[n+]1[O-]` next?
Reply: 100
